These measurements were taken from patent US10968178B2.

- target.desc: human IP6K1 (Homo sapiens)
- Construct: human IP6K1 (1-441) gene; GST; made in house; host or cells: Sf-9 insect cells
- Sequence (Q92551 whole entry): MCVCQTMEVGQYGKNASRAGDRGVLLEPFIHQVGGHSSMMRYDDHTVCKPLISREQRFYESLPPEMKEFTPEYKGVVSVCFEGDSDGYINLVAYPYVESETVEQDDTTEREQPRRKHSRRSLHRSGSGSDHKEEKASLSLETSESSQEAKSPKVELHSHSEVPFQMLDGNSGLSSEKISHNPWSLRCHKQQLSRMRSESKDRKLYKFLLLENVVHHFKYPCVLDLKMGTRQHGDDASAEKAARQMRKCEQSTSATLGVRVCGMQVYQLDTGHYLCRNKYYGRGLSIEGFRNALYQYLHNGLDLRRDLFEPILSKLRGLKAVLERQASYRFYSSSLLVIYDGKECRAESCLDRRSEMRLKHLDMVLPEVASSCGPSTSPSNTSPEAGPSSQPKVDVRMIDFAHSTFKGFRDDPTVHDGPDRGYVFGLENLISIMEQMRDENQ
- assay.summary: IP6K enzyme inhibitory assay (ADP-Glo Kinase Assay), human IP6K1
- Format: biochemical
- condition.set: compound concentration 0.1 μM; read-out: ADP-Glo method inhibitory rate (%) human IP6K1
Would you kindly list inhibition at 0.1 µM for each of these molecules?
One number for each entry, in %.

# chemical.string, reported.endpoint, numeric.value
data = [
    ("N#Cc1ccc(O[C@H]2CC[C@@]3(CC2)C(=O)Nc2ccc(C(=O)O)cc23)cc1", "inhibition at 0.1 µM", 96),
    ("O=C(O)c1ccc2c(c1)[C@]1(CC[C@@H](Oc3ncc(C4CC4)cc3C(F)(F)F)CC1)C(=O)N2", "inhibition at 0.1 µM", 101),
    ("Cc1cc(C)c(O[C@H]2CC[C@@]3(CC2)C(=O)Nc2ccc(C(=O)O)cc23)cn1", "inhibition at 0.1 µM", 72),
    ("Cc1ccc(O[C@H]2CC[C@@]3(CC2)C(=O)Nc2ccc(C(=O)O)cc23)cc1C", "inhibition at 0.1 µM", 97),
    ("O=C(O)c1ccc2c(c1)[C@]1(CC[C@H](Oc3cc(F)cnc3F)CC1)C(=O)N2", "inhibition at 0.1 µM", 86),
    ("O=C(O)c1ccc2c(c1)[C@]1(CC[C@@H](Oc3cc(OCc4ccccc4)ccn3)CC1)C(=O)N2", "inhibition at 0.1 µM", 81),
    ("Cc1nc(O[C@H]2CC[C@@]3(CC2)C(=O)Nc2ccc(C(=O)O)cc23)nc(C)c1Cl", "inhibition at 0.1 µM", 80),
    ("O=C(O)c1ccc2c(c1)[C@]1(CC[C@@H](Oc3cc(F)ccc3F)CC1)C(=O)N2", "inhibition at 0.1 µM", 97),
]

Hi, could you look up inhibition at 0.1 µM for each item in my list?
1. O=C(O)c1ccc2c(n1)[C@]1(CC[C@H](Oc3ncc(C4CC4)cc3Cl)CC1)C(=O)N2
2. O=C(O)c1ccc2c(c1)[C@]1(CC[C@@H](Oc3ccc(F)c(Cl)c3)CC1)C(=O)N2

-- reply
91
93
